B1: VH:VL chains; a variant is named by its letters at X, in order (parent)
chain 1: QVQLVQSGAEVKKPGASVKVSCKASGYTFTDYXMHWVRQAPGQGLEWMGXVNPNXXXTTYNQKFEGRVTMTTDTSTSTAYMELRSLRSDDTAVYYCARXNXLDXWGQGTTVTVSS
chain 2: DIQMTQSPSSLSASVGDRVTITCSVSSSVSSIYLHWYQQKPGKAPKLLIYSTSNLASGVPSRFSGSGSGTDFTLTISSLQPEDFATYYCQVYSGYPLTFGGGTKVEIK

Variants of: B1
Experiment: yeast display scFab, FACS + sequencing
quantity: non-specific binding call

• ARAASAGA = binds
• YKTKSDGV = no binding
• YTGRGSAA = binds
• VKGKGDWV = no binding
• AKTKSDGV = no binding

Name the recorded non-specific binding call for DTGGDAGV .
no binding

Name the recorded non-specific binding call for YKAKGASV .
binds

Name the recorded non-specific binding call for FRTKSDLA .
no binding

Name the recorded non-specific binding call for FRETDFGA .
binds

Name the recorded non-specific binding call for VETGNSGA .
no binding

Name the recorded non-specific binding call for SEEEGSGV .
no binding
